System: nectin 4 protein on NIH:OVCAR-5 cells
Experiment: Effect of peptides on anti-Nectin-4 antibody binding to cells as determined by flow cytometry
Type: cell-based, human
Conditions: Run Five; 150 μg/mL peptide, 30 minutes; Control 5 = 17,768.90
Where no end group is shown, it is not given here.
N4 MFI reference

Worked examples, 2 substances total:
substance	property-measured	experimental-result
WTTLNGSLPKGVEAQNRT-NH2 (listed as Homo sapiens) [Peptide 57]	N4 MFI	14,705.92
WTTLNGSLPKGVEA-NH2 (listed as Homo sapiens) [Peptide 51]	N4 MFI	14,202.55

Q. Given the substance EAQNRTLFFKGPINY-NH2 (listed as Homo sapiens) [Peptide 52] , write its reported N4 MFI.
A. 20,692.13

Q. Given the substance VNITEFPYTPSPPEHGRRA-NH2 (listed as Homo sapiens) [Peptide 55] , write its reported N4 MFI.
A. 19,498.24
